Origin of measurements: patent US20200199213A1

measurement target: T1, human ANGPTL3/8 complex (human, UniProt Q9Y5C1 17-460; Q6UXH0 22-198, limits assumed)
T1 construct: also called hANGPTL3/8 complex; ANGTPL3/8 complex
T1 sequence 1: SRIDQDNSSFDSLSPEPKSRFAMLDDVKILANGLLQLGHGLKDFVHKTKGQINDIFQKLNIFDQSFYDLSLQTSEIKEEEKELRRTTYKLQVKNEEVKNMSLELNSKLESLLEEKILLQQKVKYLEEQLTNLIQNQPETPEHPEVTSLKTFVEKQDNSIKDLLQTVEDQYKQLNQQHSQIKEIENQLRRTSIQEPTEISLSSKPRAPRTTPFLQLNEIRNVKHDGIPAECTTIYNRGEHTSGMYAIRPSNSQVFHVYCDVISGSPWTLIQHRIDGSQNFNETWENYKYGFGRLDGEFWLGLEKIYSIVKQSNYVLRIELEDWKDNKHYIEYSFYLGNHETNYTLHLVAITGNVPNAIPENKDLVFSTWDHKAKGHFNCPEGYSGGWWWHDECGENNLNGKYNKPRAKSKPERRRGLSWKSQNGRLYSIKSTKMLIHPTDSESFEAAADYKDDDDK
T1 sequence 2: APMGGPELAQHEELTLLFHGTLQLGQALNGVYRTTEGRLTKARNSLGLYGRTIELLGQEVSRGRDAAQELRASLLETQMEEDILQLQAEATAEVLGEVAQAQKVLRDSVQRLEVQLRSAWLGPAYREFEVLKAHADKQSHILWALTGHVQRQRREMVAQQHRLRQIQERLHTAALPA
experiment summary: single point ELISA; IgG captured by anti-human Fc; biotinylated antigen at 25 nM
measurement kind: OD at 560 nm (OD 560 nm)
Answers are plain numbers, in OD 560 nm.

# binder, OD at 560 nm [OD 560 nm]
data = [
    ("Ab with LC variant having a D33A mutation (SEQ ID NO:22) and a HC of SEQ ID NO:6 (antibody, human IgG4 S228P, kappa, F234A L235A, V domains shown, also called D33A Variant Ab; D33A Ab) VH: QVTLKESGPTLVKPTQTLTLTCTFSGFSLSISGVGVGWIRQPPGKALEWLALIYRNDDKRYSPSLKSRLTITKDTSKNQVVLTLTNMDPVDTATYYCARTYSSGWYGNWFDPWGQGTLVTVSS VL: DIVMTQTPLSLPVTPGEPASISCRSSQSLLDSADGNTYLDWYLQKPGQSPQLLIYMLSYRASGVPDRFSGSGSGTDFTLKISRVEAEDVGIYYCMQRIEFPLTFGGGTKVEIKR", 0.898),
]

Fill in OD at 560 nm for each of the 2 binders listed.
1. Ab with LC variant having a E99Q mutation (SEQ ID NO:25) and a HC of SEQ ID NO:6 (antibody, human IgG4 S228P, kappa, F234A L235A, V domains shown, also called E99Q Variant Ab; E99Q Ab) VH: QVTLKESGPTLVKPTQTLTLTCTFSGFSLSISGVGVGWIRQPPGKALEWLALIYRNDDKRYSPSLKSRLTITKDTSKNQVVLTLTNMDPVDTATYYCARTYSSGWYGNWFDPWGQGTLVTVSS VL: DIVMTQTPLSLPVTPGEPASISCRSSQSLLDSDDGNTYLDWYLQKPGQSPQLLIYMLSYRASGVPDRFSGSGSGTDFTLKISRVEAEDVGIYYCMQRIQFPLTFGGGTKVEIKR
2. Ab with LC variant having a D31S mutation (SEQ ID NO:21) and a HC of SEQ ID NO:6 (antibody, human IgG4 S228P, kappa, F234A L235A, V domains shown, also called D31S Variant Ab; D31S Ab) VH: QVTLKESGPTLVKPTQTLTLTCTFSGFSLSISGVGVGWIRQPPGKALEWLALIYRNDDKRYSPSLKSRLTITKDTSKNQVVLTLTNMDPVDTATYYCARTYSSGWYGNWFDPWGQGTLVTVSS VL: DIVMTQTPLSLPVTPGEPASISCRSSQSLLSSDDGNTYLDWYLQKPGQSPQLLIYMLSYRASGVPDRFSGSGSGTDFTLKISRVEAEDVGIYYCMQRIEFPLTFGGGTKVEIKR

1. 1.54
2. 0.928
